protocolText: Ocular tissue and plasma pharmacokinetics, 50 mg/kg BID oral, Dutch Belted rabbits (Example 4/5)
Type: in vivo
conditionNotes: male, Dutch Belted, rabbit, vitreous humor, po, 50 mg/kg, DB rabbit, 50 mg/kg BID oral, Day 15, 24 h; read-out: Vitreous concentration
readoutLabel: concentration at 24 h (ng/g)
Only the number, expressed in ng/g, is required.

So for CC(=O)c1nn(CC(=O)N2C[C@H](F)C[C@H]2C(=O)Nc2cccc(Br)n2)c2ccc(-c3cnc(C)nc3)cc12 [Compound 1] , the logged concentration at 24 h turned out to be 2.9

###

protocolText: Ocular tissue distribution and pharmacokinetics, 7.5 and 15 mg/kg oral, pigmented Dutch Belted rabbits (Example 7)
Format: in vivo
conditionNotes: Dutch Belted, rabbit; plasma, male DB rabbits, Group 3, Day 15, 15 mg/kg/dose BID oral (30 mg/kg/day)
readoutLabel: Tmax (h)
Only the number, expressed in h, is required.

So for CC(=O)c1nn(CC(=O)N2C[C@H](F)C[C@H]2C(=O)Nc2cccc(Br)n2)c2ccc(-c3cnc(C)nc3)cc12 [Compound 1] , the logged Tmax turned out to be 1
